- Test system: human β2GPI-dependent antiphospholipid antibody
- experimental_details: Micropanning of mutant domain 1 phage, patient antibodies
- Assay type: binding
- experimental_context: Table 7B, antibody 6632
measured_attribute: Micropan score

molecule="4A6: phage clone, domain 1 mutant D8G (protein) GRTCPKPGDLPFSTVVPLKTFYEPGEEITYSCKPGYVSRGGMRKFICPLTGLWPINTLKCTPRV" obs_value=2
molecule="2A1: phage clone, domain 1 mutant T20S (protein) GRTCPKPDDLPFSTVVPLKSFYEPGEEITYSCKPGYVSRGGMRKFICPLTGLWPINTLKCTPRV" obs_value=4
